# TEST_PROTOCOL: Inhibition of rat liver CK2 using RRRADDSDDDDD as substrate
pKi: −log10 of the molar value.
Reported pKi is given for each of the following compounds.
PROPERTY: pKi

[
  {
    "SMILES_NOTATION": "CN(C)CCNc1nc2c(Br)c(Br)c(Br)c(Br)c2[nH]1",
    "QUANTITATIVE_READOUT": 6.80
  },
  {
    "SMILES_NOTATION": "CN(C)c1nc2c(Br)c(Br)c(Br)c(Br)c2n1CC(=O)O",
    "QUANTITATIVE_READOUT": 6.60
  }
]

====

# TEST_PROTOCOL: Inhibition of CK2

[
  {
    "SMILES_NOTATION": "CN(C)c1nc2c(Br)c(Br)c(Br)c(Br)c2n1CC(=O)O",
    "IC50 [nM]": 270
  },
  {
    "SMILES_NOTATION": "O=C(O)CCCSc1nc2c(Br)c(Br)c(Br)c(Br)c2[nH]1",
    "IC50 [nM]": 270
  }
]

====

# TEST_PROTOCOL: Inhibition of CK2
PROPERTY: Ki

[
  {
    "SMILES_NOTATION": "CN(C)c1nc2c(Br)c(Br)c(Br)c(Br)c2[nH]1",
    "RESULT": "40 nM"
  }
]

====

# Test system: LNCaP
# TEST_PROTOCOL: Induction of apoptosis in human LNCAP cells assessed as PARP cleavage at 20 uM after 24 hrs by Western blot analysis
# Type: functional, cell-based
Active and inactive are the calls of the source. No cut-off for these calls is given here.
Labels: label 1 = active, label 0 = inactive

[
  {
    "SMILES_NOTATION": "NCCNc1nc2c(Br)c(Br)c(Br)c(Br)c2[nH]1",
    "GROUP_LABEL": "label 1"
  },
  {
    "SMILES_NOTATION": "CN(C)CCNc1nc2c(Br)c(Br)c(Br)c(Br)c2[nH]1",
    "GROUP_LABEL": "label 1"
  },
  {
    "SMILES_NOTATION": "Cn1c(NCCN)nc2c(Br)c(Br)c(Br)c(Br)c21",
    "GROUP_LABEL": "label 0"
  },
  {
    "SMILES_NOTATION": "NCCCNc1nc2c(Br)c(Br)c(Br)c(Br)c2[nH]1",
    "GROUP_LABEL": "label 1"
  },
  {
    "SMILES_NOTATION": "Brc1c(Br)c(Br)c2[nH]cnc2c1Br",
    "GROUP_LABEL": "label 1"
  },
  {
    "SMILES_NOTATION": "Cn1c(NCCN)nc2c(I)c(I)c(I)c(I)c21",
    "GROUP_LABEL": "label 0"
  },
  {
    "SMILES_NOTATION": "NCCCCNc1nc2c(Br)c(Br)c(Br)c(Br)c2[nH]1",
    "GROUP_LABEL": "label 0"
  },
  {
    "SMILES_NOTATION": "CN(C)CCNc1nc2c(I)c(I)c(I)c(I)c2[nH]1",
    "GROUP_LABEL": "label 1"
  },
  {
    "SMILES_NOTATION": "Ic1c(I)c(I)c2[nH]cnc2c1I",
    "GROUP_LABEL": "label 1"
  },
  {
    "SMILES_NOTATION": "NCCNc1nc2c(I)c(I)c(I)c(I)c2[nH]1",
    "GROUP_LABEL": "label 1"
  }
]

Source listed as ChEMBL document CHEMBL2157902.
